Provenance of the data: ChEMBL document CHEMBL4513216

test: Toxicity liver stage against HepG2, at 10uM; format: cell-based; set-up: test concentration 10 uM, cell line HepG2-A16-CD81EGFP; details: human, HepG2-A16-CD81EGFP cells; read-out: INHIBITION
Measured cytotoxicity at 10 µM, listed per entry for reference.

| compound | cytotoxicity at 10 µM, % |
| --- | --- |
| Cc1ccc(C(=O)N2CCC3(CCC(=O)N(C(C)C)C3)CC2)c(O)c1 | 17.5 |
| COCCO[C@H]1CCN(C(=O)c2ccno2)[C@H]1Cc1ccncc1 | -78.1 |
| Nc1cc(-c2cccs2)nn(CC(=O)NCC2CCCCC2)c1=O | -3.09 |
| COCC(C)NC(=O)c1sccc1-n1cnnn1 (stereo not given) | -0.132 |
| COc1cccc(CN2CCC(Cc3cnc(CN(C)C)cn3)CC2)c1 | -2.82 |
| Cc1ncc(-c2ccncc2)c(C2CCN(C(=O)c3ccco3)CC2)n1 | 4 |
| CCCc1nc(C(C)(C)NC(=O)C2CC(=O)N(C3CC3)C2)no1 (stereo not given) | -4.41 |
| COC(=O)COn1c(SC)nc2ccccc2c1=O | -6.53 |
| CN(C)CC(=O)N1CCOC2(CCCN(c3ncccc3F)C2)C1 (stereo not given) | -9.84 |
| CN(C(=O)c1ccc(Cl)c(S(C)(=O)=O)c1)c1ccccc1 | -1.47 |
| CC(C)C(=O)N1CCC2(CN(CC3CCCC3)C2)C1 | 3.86 |
| CCC(C)NC(=O)CCNC(=O)c1c[nH]cc1-c1cccc(OC)c1 (stereo not given) | 6.98 |
| Cc1cc(NC(C)c2nncn2C2CCCC2)n2nc(C)c(C)c2n1 (stereo not given) | 13.7 |
| CCCc1nnc(NC(=O)N2CCCC2c2ccncc2)s1 (stereo not given) | 5.36 |
| CN(C)c1ccc(C(=O)Nc2ccn(CCc3ccncc3)n2)cn1 | -12.7 |

----------
test: Toxicity liver stage against HepG2, at 10uM; assay type: cell-based; parameters: test concentration 10 uM, cell line HepG2-A16-CD81EGFP; details: human, HepG2-A16-CD81EGFP cells; read-out: INHIBITION
Measured cytotoxicity at 10 µM, listed per entry for reference.

| molecule | cytotoxicity at 10 µM [%] |
| --- | --- |
| CNS(=O)(=O)CC1CCCN1c1ccccn1 (stereo not given) | 2.83 |
| CC(NC(=O)NCc1cccnc1N1CCCCC1)c1nccs1 (stereo not given) | -7.95 |
| CCCc1n[nH]c(C2CN(C(=O)c3cccnc3N(C)C)CCO2)n1 (stereo not given) | -2.91 |
| Cc1ccc(N2C[C@H]3OCC[C@H]3[C@H](C(=O)NCC3CC3)C2)nn1 | -75.7 |
| O=C(CO[C@@H]1CC[C@H]2[C@H]1OCCN2Cc1ccccn1)N1CCCC1 | -3.98 |

----------
Measured cytotoxicity at 10 µM, listed per entry for reference.
assay: Toxicity liver stage against HepG2, at 10uM; type: cell-based; design: test concentration 10 uM, cell line HepG2-A16-CD81EGFP; conditions: human, HepG2-A16-CD81EGFP cells; read-out: INHIBITION
metric: cytotoxicity at 10 µM (%)

| compound | metric | observed |
| --- | --- | --- |
| Cc1cc(NCCC(=O)NC2CCCCC2)nc(-c2ccncc2)n1 | cytotoxicity at 10 µM | -5.37 |
| Cc1nc2c(s1)C(N(C)C(=O)NCCCC(C)(C)CO)CCC2 (centres undefined) | cytotoxicity at 10 µM | -3.43 |
| COc1cccc(-c2noc(-c3ccc(NCC(C)O)nc3)n2)c1OC (centres undefined) | cytotoxicity at 10 µM | -5.82 |
| Cc1cc(C)c2[nH]c(C(=O)NCCN3CCNC3=O)c(C)c2c1 | cytotoxicity at 10 µM | 2.49 |
| Cc1cn2nc(N(C)C3CCCN(c4cccnn4)C3)sc2n1 (centres undefined) | cytotoxicity at 10 µM | 4.29 |
| CC(Oc1ccc(S(C)(=O)=O)cc1)C(=O)NC(N)=O (centres undefined) | cytotoxicity at 10 µM | -5.69 |
| Cc1cc(N2CCN(CCO)CC2)nc(-c2ccncc2)n1 | cytotoxicity at 10 µM | -1.25 |
| COCC(=O)N1CCCN(Cc2c(C)nc3ccc(Cl)cn23)CC1 | cytotoxicity at 10 µM | 5.39 |
| Fc1ccc(C2(NCc3noc(C4CC4)n3)CCC2)cc1 | cytotoxicity at 10 µM | -0.304 |
| Cc1cc2c(=O)n(CCSc3cnn[nH]3)cnc2s1 | cytotoxicity at 10 µM | 10.1 |
| CCc1nc(CS(=O)(=O)Cc2noc(C3CC3)n2)cs1 | cytotoxicity at 10 µM | -7.38 |
| Cc1ccc(N2CCC(C(=O)O)(n3ccc(C(C)C)n3)CC2)nn1 | cytotoxicity at 10 µM | -3.64 |
| COCCn1cc(C(=O)NC2CCS(=O)(=O)C2)c2ccccc2c1=O (centres undefined) | cytotoxicity at 10 µM | -4.17 |
| CCCc1nc(C)c(C(=O)NCCN2CCCCC2)s1 | cytotoxicity at 10 µM | -0.906 |
| Cc1cccc(CS(=O)(=O)NCc2nn(C)c3c2COCC3)c1 | cytotoxicity at 10 µM | -3.02 |
| COCCN1CCc2ncnc(-c3ccccc3)c2CC1 | cytotoxicity at 10 µM | 9.99 |
| CC(=O)N1CCC2(CC1)CN(C(=O)c1ccc3c(c1)OCO3)C2 | cytotoxicity at 10 µM | 6.71 |
| CCN1CCn2c(C)cnc2C12CCN(C(=O)N(C)C)CC2 | cytotoxicity at 10 µM | 4.91 |
| CC1CN(C)CCN1C(=O)Nc1nc(-c2ccc[nH]2)cs1 (centres undefined) | cytotoxicity at 10 µM | -1.94 |
| CCCn1nc(C)c2c(C(F)F)cc(=O)n(CC(=O)O)c21 | cytotoxicity at 10 µM | 1.76 |
| CCOC(C)C(=O)NS(=O)(=O)c1cccc2cc(C)cnc12 (centres undefined) | cytotoxicity at 10 µM | -3.14 |
| CNc1snc(C)c1C(=O)N1CCCC(n2nc(C)nc2C)C1 (centres undefined) | cytotoxicity at 10 µM | -7 |
| CSCc1ccc(CNC2CCCN(c3ccc(C)nn3)C2)o1 (centres undefined) | cytotoxicity at 10 µM | -13.2 |
| O=C1CC[C@H]2[C@H](CCN2c2ncccn2)N1c1ccccc1 | cytotoxicity at 10 µM | 5.77 |
| O=C(NCc1cc[nH]n1)NCC(O)c1ccc(F)cc1 (centres undefined) | cytotoxicity at 10 µM | -12 |
| O=S1(=O)CCC(S(=O)(=O)c2cccc(S(=O)(=O)N3CCCC3)c2)C1 (centres undefined) | cytotoxicity at 10 µM | 3.45 |
| CC(Cn1cccn1)Nc1cnc2ccccc2n1 (centres undefined) | cytotoxicity at 10 µM | -7.67 |
| Cn1ncc2c(=O)[nH]c(CN3CCCC3CC3CCCCC3)nc21 (centres undefined) | cytotoxicity at 10 µM | -2.41 |
| NC(=O)c1cc(C2CCCN(CCCOc3ccccc3)C2)n[nH]1 (centres undefined) | cytotoxicity at 10 µM | -12.1 |
| O=C(NC[C@H]1OC[C@@H](NC2CCOCC2)[C@@H]1O)c1cccs1 | cytotoxicity at 10 µM | -1.6 |
| Nc1nnc(CCCn2nnc(-c3ccccc3F)n2)s1 | cytotoxicity at 10 µM | -1.67 |
| O=C1CCCN1Cc1nnc2n1CCN(Cc1ccccn1)CC2 | cytotoxicity at 10 µM | -9.87 |
| Cc1nn(C)c2c(N3CCN(C(=O)C4CCCCC4)CC3)ncnc12 | cytotoxicity at 10 µM | 12.3 |
| Cc1ccc(NC2CCN(C(=O)CCc3c(C)noc3C)CC2)nn1 | cytotoxicity at 10 µM | -11.4 |
| CN(Cc1cccc(C(N)=O)c1)Cc1nc2c(cnn2C)c(=O)[nH]1 | cytotoxicity at 10 µM | -2.97 |
| CCC(C)c1csc(NC(=O)Cc2csc(-c3nnc[nH]3)n2)n1 (centres undefined) | cytotoxicity at 10 µM | -29.6 |
| CO[C@H]1CN(C(=O)c2ccnnc2)[C@@H]2COC[C@H]12 | cytotoxicity at 10 µM | 2.83 |
| Cc1cccc(-c2noc(CN3CCc4c(ncn4C4CC4)C3)n2)c1 | cytotoxicity at 10 µM | 4.95 |
| CC(=O)N1C[C@@H](c2ccsc2)[C@@H]2CN(Cc3ccccc3C)CC[C@@H]21 | cytotoxicity at 10 µM | -5 |
